- target.or.test.system: DR2a (DRA*0101/DRB5*0101) (Homo sapiens, UniProt P01903+Q30154)
- Construct: DRA*01011-181LZFos; DRB5*01011-190LZJunBSP; made in house
- Sequence (P01903 with tags, fused parts or gaps limits assumed): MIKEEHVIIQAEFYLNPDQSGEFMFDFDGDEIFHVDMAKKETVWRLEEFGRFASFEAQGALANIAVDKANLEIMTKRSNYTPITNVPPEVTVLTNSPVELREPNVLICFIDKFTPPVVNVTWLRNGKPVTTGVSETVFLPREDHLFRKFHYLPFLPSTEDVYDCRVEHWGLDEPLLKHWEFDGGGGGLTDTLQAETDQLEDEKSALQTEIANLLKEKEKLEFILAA
- Sequence (Q30154 with tags, fused parts or gaps limits assumed): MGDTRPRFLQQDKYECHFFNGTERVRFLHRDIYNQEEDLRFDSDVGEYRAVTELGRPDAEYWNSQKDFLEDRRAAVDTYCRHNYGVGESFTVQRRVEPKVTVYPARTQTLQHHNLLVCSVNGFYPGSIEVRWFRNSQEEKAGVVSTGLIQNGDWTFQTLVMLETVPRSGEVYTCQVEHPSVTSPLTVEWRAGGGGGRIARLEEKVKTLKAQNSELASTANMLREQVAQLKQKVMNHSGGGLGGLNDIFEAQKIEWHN
- experimental.protocol: Direct LOCI peptide-MHC-II binding assay, DR2a
Kindly state pKd for each of the entries shown.
Would you please state pKd, meaning minus log10 of the concentration in mol/L, as a bare number?

Req: Field request: pKd | item: CC[C@H](C)[C@H](NC(=O)[C@@H](N)Cc1ccc(O)cc1)C(=O)N[C@@H](CC(=O)O)C(=O)N[C@H](C(=O)N[C@@H](Cc1c[nH]c2ccccc12)C(=O)N[C@@H](CC(C)C)C(=O)NCC(=O)NCC(=O)N[C@@H](CC(C)C)C(=O)N[C@@H](C)C(=O)N[C@@H](CCC(=O)O)C(=O)N[C@@H](CC(N)=O)C(=O)N[C@@H](Cc1ccccc1)C(=O)N[C@@H](CC(C)C)C(=O)N1CCC[C@H]1C(=O)N[C@@H](Cc1ccc(O)cc1)C(=O)O)C(C)C [Thyroid peroxidase]
Resp: 5.67

Req: Field request: pKd | item: CC[C@H](C)[C@H](NC(=O)[C@@H](N)CCCCN)C(=O)N[C@@H](CC(C)C)C(=O)N[C@@H](CCC(=O)O)C(=O)N1CCC[C@H]1C(=O)N[C@@H](Cc1ccccc1)C(=O)N[C@@H](CCCNC(=N)N)C(=O)N[C@@H](CCCCN)C(=O)N[C@@H](Cc1ccc(O)cc1)C(=O)N[C@H](C(=O)N[C@@H](C)C(=O)N[C@@H](Cc1ccccc1)C(=O)N[C@H](C(=O)N[C@H](C(=O)N1CCC[C@H]1C(=O)O)[C@@H](C)CC)[C@@H](C)O)[C@@H](C)O
Resp: 7.80

* * *

- target.or.test.system: I-E^d (Mus musculus, UniProt P01904+P01915)
- Construct: I-E^dA1-191LZFos; I-E^dB1-198LZJunBSP; made in house
- experimental.protocol: Direct LOCI peptide-MHC-II binding assay, I-E^d
- test.context: KD, I-E^d
Where no end group is shown, it is not given here.
recorded.endpoint: pKd
Would you please state pKd, meaning minus log10 of the concentration in mol/L, as a bare number?

Req: Field request: pKd | item: YILLKKILSSRFNQM [Plasmodium Falciparum]
Resp: 7.85

* * *

Kindly state pKd for each of the entries shown.
- target.or.test.system: DRB3*0301 (DRA*0101/DRB3*0301) (Homo sapiens, UniProt P01903+P79483, A169T/A212P/D57E/G115V/L67V/Q178H/R103Q/R40L/Y55F)
- Construct: DRA*01011-181LZFos; DRB3*03011-190LZJunBSP; made in house
- experimental.protocol: Direct LOCI peptide-MHC-II binding assay, DRB3*0301
- test.context: pH 7; 48 h 18°C; read-out: DRB3*0301 affinity
Where no end group is shown, it is not given here.
Would you please state pKd, meaning minus log10 of the concentration in mol/L, as a bare number?

Req: Field request: pKd | item: YILFLVKMNALRRLPV
Resp: 8.52

Req: Field request: pKd | item: RMIAISAKV [Pox.o42.con.im. A2]
Resp: 5.90

Req: Field request: pKd | item: YKYVKQNTLKLAT [HA306-318]
Resp: 8.40
